Biological target: Tyro3 (Homo sapiens, UniProt Q06418)
Test: Tyro3 kinase inhibition IC50
Assay type: biochemical
Conditions: Table 3; read-out: Tyro3 IC50
pIC50: −log10 of the molar value.
READOUT: pIC50

Give pIC50 for the following compound: Cc1cc(C#Cc2cc(NC(=O)C(C)C)ccn2)ccc1Nc1ncc(-c2ccc(CN3CCN(C)CC3)cc2)c(N[C@H]2CC[C@H](O)CC2)n1 [UNC4048A] 7.00 to 8.00

Give pIC50 for the following compound: CN1CCN(Cc2ccc(-c3cnc(Nc4ccc(C#Cc5cc(NC(=O)C6CCCCC6)ccn5)cc4)nc3N[C@H]3CC[C@H](O)CC3)cc2)CC1 [UNC3873A] 7.00 to 8.00

Give pIC50 for the following compound: CN1CCN(Cc2ccc(-c3cnc(Nc4ccc(C#Cc5cc(N)ccn5)cc4)nc3N[C@H]3CC[C@H](O)CC3)cc2)CC1 [UNC3869A] 6.00 to 7.00

Give pIC50 for the following compound: CC(C)C(=O)Nc1ccnc(C#Cc2ccc(Nc3ncc(-c4ccc(CN5CCN(C)CC5)cc4)c(N[C@H]4CC[C@H](O)CC4)n3)c(Cl)c2)c1 [UNC4046A] 7.00 to 8.00

Give pIC50 for the following compound: CN1CCN(Cc2ccc(-c3cnc(Nc4ccc(C#Cc5cc(NC(=O)c6ccccc6)ccn5)cc4)nc3N[C@H]3CC[C@H](O)CC3)cc2)CC1 [UNC3868A] 7.00 to 8.00

Give pIC50 for the following compound: CC(C)C(=O)Nc1ccnc(C#Cc2ccc(Nc3ncc(-c4ccccc4)c(N[C@H]4CC[C@H](O)CC4)n3)cc2)c1 [UNC4041A] 7.00 to 8.00

###

So I've got a bunch of compounds here, and I need their IC50 values.
Target: Mer (Homo sapiens, UniProt Q12866)
Sequence (Q12866 21-999): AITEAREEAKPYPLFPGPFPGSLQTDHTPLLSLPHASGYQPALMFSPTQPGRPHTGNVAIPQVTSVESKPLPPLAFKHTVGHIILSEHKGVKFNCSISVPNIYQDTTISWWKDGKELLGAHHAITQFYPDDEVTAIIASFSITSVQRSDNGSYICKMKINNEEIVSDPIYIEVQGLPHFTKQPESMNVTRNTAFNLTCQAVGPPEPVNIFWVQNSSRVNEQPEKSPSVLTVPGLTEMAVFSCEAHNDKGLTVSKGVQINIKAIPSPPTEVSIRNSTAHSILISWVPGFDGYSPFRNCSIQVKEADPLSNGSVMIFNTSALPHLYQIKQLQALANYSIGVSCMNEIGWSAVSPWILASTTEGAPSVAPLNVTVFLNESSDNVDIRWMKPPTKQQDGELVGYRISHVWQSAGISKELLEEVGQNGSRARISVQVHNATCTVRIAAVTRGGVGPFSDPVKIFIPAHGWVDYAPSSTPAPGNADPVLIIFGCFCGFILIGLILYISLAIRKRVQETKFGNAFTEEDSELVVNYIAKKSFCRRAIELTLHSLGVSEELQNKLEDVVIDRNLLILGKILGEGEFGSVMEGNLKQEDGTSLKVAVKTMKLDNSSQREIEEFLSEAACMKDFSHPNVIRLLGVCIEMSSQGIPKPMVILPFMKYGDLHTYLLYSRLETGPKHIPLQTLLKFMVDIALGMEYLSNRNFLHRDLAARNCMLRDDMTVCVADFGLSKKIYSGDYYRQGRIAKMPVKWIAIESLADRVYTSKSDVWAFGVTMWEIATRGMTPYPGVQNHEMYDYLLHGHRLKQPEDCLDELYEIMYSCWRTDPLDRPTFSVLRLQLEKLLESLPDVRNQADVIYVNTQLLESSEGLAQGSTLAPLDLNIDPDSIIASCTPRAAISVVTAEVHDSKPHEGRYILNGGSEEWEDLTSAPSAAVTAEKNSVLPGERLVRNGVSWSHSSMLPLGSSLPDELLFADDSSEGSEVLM
Test: Mer kinase inhibition IC50
Assay type: biochemical
Details: Table 3; read-out: Mer IC50

Give IC50 for the following compound: CN(C)C(=O)c1ccnc(C#Cc2ccc(Nc3ncc(-c4ccccn4)c(N[C@H]4CC[C@H](O)CC4)n3)cc2)c1 [UNC3459A] 10 to 100 nM

Give IC50 for the following compound: CN1CCN(Cc2ccc(-c3cnc(Nc4ccc(C#Cc5cc(NC(=O)c6ccccc6)ccn5)cc4)nc3N[C@H]3CC[C@H](O)CC3)cc2)CC1 [UNC3868A] < 10 nM

Give IC50 for the following compound: CC(C)C(=O)Nc1ccnc(C#Cc2ccc(Nc3ncc(-c4ccc(CN5CCN(C)CC5)cc4)c(N[C@H]4CC[C@H](O)CC4)n3)cc2F)c1 [UNC4045A] < 10 nM

###

Biological target: UniProt P30530
Experiment: Axl kinase inhibition IC50
Assay type: biochemical
Conditions: Table 3
pIC50: −log10 of the molar value.
READOUT: pIC50

Give pIC50 for the following compound: CCNC(=O)c1ccnc(C#Cc2ccc(Nc3ncc(-c4ccccn4)c(N[C@H]4CC[C@H](O)CC4)n3)cc2)c1 [UNC3458A] > 8.00

Give pIC50 for the following compound: CC(C)C(=O)Nc1ccnc(C#Cc2ccc(Nc3ncc(-c4ccc(CN5CCN(C)CC5)cc4)c(N[C@H]4CC[C@H](O)CC4)n3)cc2F)c1 [UNC4045A] > 8.00

Give pIC50 for the following compound: CC(C)C(=O)Nc1ccnc(C#Cc2ccc(Nc3ncc(-c4ccncc4)c(N[C@H]4CC[C@H](O)CC4)n3)cc2)c1 [UNC4043A] 7.00 to 8.00

Give pIC50 for the following compound: CC(C)C(=O)Nc1ccnc(C#Cc2ccc(Nc3ncc(-c4ccc(CN5CCN(C)CC5)cc4)c(N[C@H]4CC[C@H](O)CC4)n3)cc2Cl)c1 [UNC4047A] > 8.00

Give pIC50 for the following compound: CN1CCN(Cc2ccc(-c3cnc(Nc4ccc(C#Cc5cc(NC(=O)C6CC6)ccn5)cc4)nc3N[C@H]3CC[C@H](O)CC3)cc2)CC1 [UNC3622A] > 8.00

Give pIC50 for the following compound: CN1CCN(Cc2ccc(-c3cnc(Nc4ccc(C#Cc5cc(NC(=O)C6CCCC6)ccn5)cc4)nc3N[C@H]3CC[C@H](O)CC3)cc2)CC1 [UNC3872A] > 8.00

###

Molecular target: Tyro3 (Homo sapiens)
Sequence (Q06418 41-890): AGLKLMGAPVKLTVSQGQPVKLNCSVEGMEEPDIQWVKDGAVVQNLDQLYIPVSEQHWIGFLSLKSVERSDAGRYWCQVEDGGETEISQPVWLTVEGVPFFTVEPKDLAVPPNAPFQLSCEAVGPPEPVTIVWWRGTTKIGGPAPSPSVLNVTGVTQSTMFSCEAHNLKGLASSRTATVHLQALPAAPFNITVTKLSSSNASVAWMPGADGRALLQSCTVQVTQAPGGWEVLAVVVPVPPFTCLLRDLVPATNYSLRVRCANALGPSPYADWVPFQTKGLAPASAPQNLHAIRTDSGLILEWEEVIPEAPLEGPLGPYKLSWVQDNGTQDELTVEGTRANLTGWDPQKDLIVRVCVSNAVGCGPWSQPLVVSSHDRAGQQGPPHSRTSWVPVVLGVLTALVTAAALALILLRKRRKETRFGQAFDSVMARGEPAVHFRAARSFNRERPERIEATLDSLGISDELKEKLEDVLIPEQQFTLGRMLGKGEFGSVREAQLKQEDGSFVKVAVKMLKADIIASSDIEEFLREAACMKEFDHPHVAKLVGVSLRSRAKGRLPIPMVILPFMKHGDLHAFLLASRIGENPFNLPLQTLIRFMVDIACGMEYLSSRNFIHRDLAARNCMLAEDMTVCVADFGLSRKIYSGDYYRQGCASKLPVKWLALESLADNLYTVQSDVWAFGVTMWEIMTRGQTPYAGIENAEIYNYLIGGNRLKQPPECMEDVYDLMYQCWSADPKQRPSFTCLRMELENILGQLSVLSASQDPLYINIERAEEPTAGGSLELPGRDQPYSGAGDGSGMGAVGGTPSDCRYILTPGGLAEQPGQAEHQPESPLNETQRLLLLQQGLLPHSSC
Test: Tyro3 kinase inhibition IC50
Format: biochemical
Details: Table 1; read-out: Tyro3 IC50
pIC50: −log10 of the molar value.
READOUT: pIC50

Give pIC50 for the following compound: CC(C)N1CCC(=Cc2ccc(-c3cnc(Nc4ccc(F)cc4)nc3N[C@H]3CC[C@H](O)CC3)nc2)CC1 [UNC4397A] > 8.00

Give pIC50 for the following compound: O[C@H]1CC[C@H](Nc2nc(Nc3ccccc3)ncc2-c2ccccn2)CC1 [UNC3029A] > 8.00

Give pIC50 for the following compound: O[C@H]1CC[C@H](Nc2nc(Nc3ccccc3)ncc2-c2ccc(CN3CCCC3)cn2)CC1 [UNC4198A] > 8.00

###

So I've got a bunch of compounds here, and I need their IC50 values.
Target: Axl (Homo sapiens)
Sequence (P30530 26-894): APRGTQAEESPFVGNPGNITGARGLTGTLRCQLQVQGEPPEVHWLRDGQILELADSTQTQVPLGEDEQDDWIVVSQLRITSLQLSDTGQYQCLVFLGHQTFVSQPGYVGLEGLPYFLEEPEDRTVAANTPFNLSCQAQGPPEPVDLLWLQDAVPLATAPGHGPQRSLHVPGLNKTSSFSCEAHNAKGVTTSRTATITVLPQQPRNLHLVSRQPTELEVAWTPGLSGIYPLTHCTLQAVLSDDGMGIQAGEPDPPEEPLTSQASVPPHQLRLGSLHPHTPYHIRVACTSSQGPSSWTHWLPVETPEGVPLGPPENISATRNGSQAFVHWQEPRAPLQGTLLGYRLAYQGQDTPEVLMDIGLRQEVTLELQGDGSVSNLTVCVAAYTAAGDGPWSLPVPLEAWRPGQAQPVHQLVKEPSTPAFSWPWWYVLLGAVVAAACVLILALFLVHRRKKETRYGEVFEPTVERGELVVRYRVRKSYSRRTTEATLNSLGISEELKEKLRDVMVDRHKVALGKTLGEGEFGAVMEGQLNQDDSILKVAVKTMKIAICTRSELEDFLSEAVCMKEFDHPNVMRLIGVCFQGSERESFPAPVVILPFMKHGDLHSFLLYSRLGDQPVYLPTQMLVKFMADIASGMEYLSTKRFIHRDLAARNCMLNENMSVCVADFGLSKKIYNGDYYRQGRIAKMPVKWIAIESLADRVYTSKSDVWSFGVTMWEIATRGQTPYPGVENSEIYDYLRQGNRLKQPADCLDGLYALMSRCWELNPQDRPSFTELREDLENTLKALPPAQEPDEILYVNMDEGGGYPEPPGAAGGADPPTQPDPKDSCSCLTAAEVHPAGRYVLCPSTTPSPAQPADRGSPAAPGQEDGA
Experiment: Axl kinase inhibition IC50
Format: biochemical
Conditions: Table 3

Give IC50 for the following compound: NS(=O)(=O)c1ccc(-c2cnc(Nc3ccc(C#Cc4cc(C(=O)NC5CC5)ccn4)cc3)nc2N[C@H]2CC[C@H](O)CC2)nc1 [UNC3457A] 0.01 to 0.1 µM

Give IC50 for the following compound: O=S(=O)(c1ccc(-c2cnc(Nc3ccc(C#Cc4cc(C5OCCO5)ccn4)cc3)nc2N[C@H]2CC[C@H](O)CC2)nc1)N1CCOCC1 [UNC3619A] 0.1 to 1 µM

Give IC50 for the following compound: CN1CCN(Cc2ccc(-c3cnc(Nc4ccc(C#Cc5cc(NC(=O)c6ccccc6)ccn5)cc4)nc3N[C@H]3CC[C@H](O)CC3)cc2)CC1 [UNC3868A] 0.01 to 0.1 µM

###

Molecular target: Mer (Homo sapiens, UniProt Q12866)
Assay: Mer kinase inhibition IC50
Type: biochemical
Conditions: Table 3; read-out: Mer IC50
pIC50: −log10 of the molar value.
READOUT: pIC50

Give pIC50 for the following compound: CC(C)C(=O)Nc1ccnc(C#Cc2ccc(Nc3ncc(-c4ccc(CN5CCN(C)CC5)cc4)c(N[C@H]4CC[C@H](O)CC4)n3)cc2Cl)c1 [UNC4047A] > 8.00

Give pIC50 for the following compound: CN1CCN(Cc2ccc(-c3cnc(Nc4ccc(C#Cc5cc(C6OCCO6)ccn5)cc4)nc3N[C@H]3CC[C@H](O)CC3)cc2)CC1 [UNC3437A] 7.00 to 8.00

Give pIC50 for the following compound: O=S(=O)(c1ccc(-c2cnc(Nc3ccc(C#Cc4cc(C5OCCO5)ccn4)cc3)nc2N[C@H]2CC[C@H](O)CC2)nc1)N1CCOCC1 [UNC3619A] > 8.00

Give pIC50 for the following compound: CCNC(=O)c1ccnc(C#Cc2ccc(Nc3ncc(-c4ccccn4)c(N[C@H]4CC[C@H](O)CC4)n3)cc2)c1 [UNC3458A] > 8.00

Give pIC50 for the following compound: CN1CCN(Cc2ccc(-c3cnc(Nc4ccc(C#Cc5cc(NC(=O)C6CC6)ccn5)cc4)nc3N[C@H]3CC[C@H](O)CC3)cc2)CC1 [UNC3622A] > 8.00

Give pIC50 for the following compound: NS(=O)(=O)c1ccc(-c2cnc(Nc3ccc(C#Cc4cc(C(=O)NC5CC5)ccn4)cc3)nc2N[C@H]2CC[C@H](O)CC2)nc1 [UNC3457A] 7.00 to 8.00

Give pIC50 for the following compound: CC(C)C(=O)Nc1ccnc(C#Cc2ccc(Nc3ncc(-c4ccncc4)c(N[C@H]4CC[C@H](O)CC4)n3)cc2)c1 [UNC4043A] > 8.00

Give pIC50 for the following compound: CN1CCN(Cc2ccc(-c3cnc(Nc4ccc(C#Cc5cc(NC(=O)C6CCCCC6)ccn5)cc4)nc3N[C@H]3CC[C@H](O)CC3)cc2)CC1 [UNC3873A] > 8.00

Give pIC50 for the following compound: CN1CCN(Cc2ccc(-c3cnc(Nc4ccc(C#Cc5cc(NC(=O)C6CCCC6)ccn5)cc4)nc3N[C@H]3CC[C@H](O)CC3)cc2)CC1 [UNC3872A] > 8.00

Give pIC50 for the following compound: CN1CCN(Cc2ccc(-c3cnc(Nc4ccc(C#Cc5cc(N)ccn5)cc4)nc3N[C@H]3CC[C@H](O)CC3)cc2)CC1 [UNC3869A] 7.00 to 8.00

Give pIC50 for the following compound: CC(C)C(=O)Nc1ccnc(C#Cc2ccc(Nc3ncc(-c4ccc(CN5CCN(C)CC5)cc4)c(N[C@H]4CC[C@H](O)CC4)n3)c(Cl)c2)c1 [UNC4046A] 7.00 to 8.00

Give pIC50 for the following compound: CC(=O)Nc1ccnc(C#Cc2ccc(Nc3ncc(-c4ccc(CN5CCN(C)CC5)cc4)c(N[C@H]4CC[C@H](O)CC4)n3)cc2)c1 [UNC3874A] 7.00 to 8.00

Give pIC50 for the following compound: CC(C)C(=O)Nc1ccnc(C#Cc2ccc(Nc3ncc(-c4ccccn4)c(N[C@H]4CC[C@H](O)CC4)n3)cc2)c1 [UNC4042A] > 8.00
